Entry source: the NIST ThermoML archive (doi:10.1021/acs.jced.7b00458)

- condition.context: 324.15 K; 100 kPa; Liquid; Vibrating tube method
property.label: mass density (kg/m3)
Give the quantity in kg/m3, number only.

CCCC[N+]1(C)CCCCC1.O=S(=O)([N-]S(=O)(=O)C(F)(F)F)C(F)(F)F	1360
CCCCC[P+](CC)(CC)CC.O=S(=O)([N-]S(=O)(=O)C(F)(F)F)C(F)(F)F	1282
CC[P+](CC)(CC)CCOC.O=S(=O)([N-]S(=O)(=O)C(F)(F)F)C(F)(F)F	1354

Now consider the entry below.
In: Quick one: mass density for CCCC[N+]1(C)CCCC1.O=S(=O)([N-]S(=O)(=O)C(F)(F)F)C(F)(F)F ?
Out: 1372
